- experimental_system: HIV-1 NL4-3 Env on infected cells (HIV-1 group M subtype B, NL4-3 (pNL4-3 …, strain))
measurement_kind: binding result

* c5275 (antibody, V domains shown) VH: QGQLVESGGGVVQPGTSLRLSCKASGFSFSNHVMHWVRQAPGKGLEWVAAIWDDGSNQYYRDSVKGRFTISRDNSKNTLFLQMSSLTVQDTAIYFCARRMSAVGTIFAYFNYGMDVWGRGTTVIVSS VL: EVVLTQSPGTLSLSPGERGTLSCRASQHLSDSSLAWYQQKPGQAPRLLIYAASRRATGIPDRFSGSGSGTDFTLTISRLDPDDFAVYYCQHYGNSPVITFGQGTRLDIK | binds
* c7490 (antibody, V domains shown) VH: QVRLIQSGTLVARPGSSVKVSCQAPGDILANDAVAWVRQAPGQSLEFLGGLPSNFAVGVRAPKFEDRLSIKVDRATKTVHMELRDLTFDDTAIYYCVTCPQRTSVVMSFYFQHWGQGSLVAVSS VL: DIQMTQSPASVSASVGDRVTISCRASEEISGRLAWYQQRPGQGPKLLISHTSTLQSGVPSRFTGSGSGTDFTLTISSLQPEDSATYYCQQAQYFPPTFGQGTRLDLK | binds
